- target.system: T1, G9a and GLP (Homo sapiens, UniProt Q96KQ7+Q9H9B1)
- T1 sequence (Q96KQ7 2-1210 limits assumed): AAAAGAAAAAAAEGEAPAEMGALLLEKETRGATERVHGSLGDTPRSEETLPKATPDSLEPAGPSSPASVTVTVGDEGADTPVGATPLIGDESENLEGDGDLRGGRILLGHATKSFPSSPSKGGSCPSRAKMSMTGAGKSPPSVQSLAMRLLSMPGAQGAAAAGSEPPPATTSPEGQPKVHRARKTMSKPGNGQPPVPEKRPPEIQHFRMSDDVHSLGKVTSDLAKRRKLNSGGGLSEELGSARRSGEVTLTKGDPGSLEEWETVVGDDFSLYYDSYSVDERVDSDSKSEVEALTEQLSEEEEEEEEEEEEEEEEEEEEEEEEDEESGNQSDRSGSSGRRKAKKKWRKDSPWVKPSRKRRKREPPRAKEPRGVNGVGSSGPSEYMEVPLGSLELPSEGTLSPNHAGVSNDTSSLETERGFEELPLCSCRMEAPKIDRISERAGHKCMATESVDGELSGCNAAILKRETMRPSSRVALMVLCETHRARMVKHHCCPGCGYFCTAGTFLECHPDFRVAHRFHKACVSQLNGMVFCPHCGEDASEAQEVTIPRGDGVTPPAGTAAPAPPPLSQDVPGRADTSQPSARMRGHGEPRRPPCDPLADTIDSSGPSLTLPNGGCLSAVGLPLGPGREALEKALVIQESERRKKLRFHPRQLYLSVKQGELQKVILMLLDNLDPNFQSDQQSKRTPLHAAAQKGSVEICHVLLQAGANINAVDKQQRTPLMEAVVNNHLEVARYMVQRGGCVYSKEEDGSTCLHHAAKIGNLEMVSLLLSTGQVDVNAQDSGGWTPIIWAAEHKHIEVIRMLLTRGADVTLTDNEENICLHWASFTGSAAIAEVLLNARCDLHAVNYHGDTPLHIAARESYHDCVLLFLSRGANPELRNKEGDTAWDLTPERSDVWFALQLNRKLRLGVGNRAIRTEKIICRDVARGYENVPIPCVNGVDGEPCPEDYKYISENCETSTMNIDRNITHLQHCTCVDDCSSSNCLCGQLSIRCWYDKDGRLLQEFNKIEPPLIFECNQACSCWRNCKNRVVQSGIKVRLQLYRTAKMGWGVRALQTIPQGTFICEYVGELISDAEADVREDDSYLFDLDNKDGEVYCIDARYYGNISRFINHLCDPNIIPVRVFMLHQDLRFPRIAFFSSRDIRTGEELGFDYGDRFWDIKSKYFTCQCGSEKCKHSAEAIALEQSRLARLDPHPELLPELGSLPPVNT
- T1 sequence (Q9H9B1 2-1298 limits assumed): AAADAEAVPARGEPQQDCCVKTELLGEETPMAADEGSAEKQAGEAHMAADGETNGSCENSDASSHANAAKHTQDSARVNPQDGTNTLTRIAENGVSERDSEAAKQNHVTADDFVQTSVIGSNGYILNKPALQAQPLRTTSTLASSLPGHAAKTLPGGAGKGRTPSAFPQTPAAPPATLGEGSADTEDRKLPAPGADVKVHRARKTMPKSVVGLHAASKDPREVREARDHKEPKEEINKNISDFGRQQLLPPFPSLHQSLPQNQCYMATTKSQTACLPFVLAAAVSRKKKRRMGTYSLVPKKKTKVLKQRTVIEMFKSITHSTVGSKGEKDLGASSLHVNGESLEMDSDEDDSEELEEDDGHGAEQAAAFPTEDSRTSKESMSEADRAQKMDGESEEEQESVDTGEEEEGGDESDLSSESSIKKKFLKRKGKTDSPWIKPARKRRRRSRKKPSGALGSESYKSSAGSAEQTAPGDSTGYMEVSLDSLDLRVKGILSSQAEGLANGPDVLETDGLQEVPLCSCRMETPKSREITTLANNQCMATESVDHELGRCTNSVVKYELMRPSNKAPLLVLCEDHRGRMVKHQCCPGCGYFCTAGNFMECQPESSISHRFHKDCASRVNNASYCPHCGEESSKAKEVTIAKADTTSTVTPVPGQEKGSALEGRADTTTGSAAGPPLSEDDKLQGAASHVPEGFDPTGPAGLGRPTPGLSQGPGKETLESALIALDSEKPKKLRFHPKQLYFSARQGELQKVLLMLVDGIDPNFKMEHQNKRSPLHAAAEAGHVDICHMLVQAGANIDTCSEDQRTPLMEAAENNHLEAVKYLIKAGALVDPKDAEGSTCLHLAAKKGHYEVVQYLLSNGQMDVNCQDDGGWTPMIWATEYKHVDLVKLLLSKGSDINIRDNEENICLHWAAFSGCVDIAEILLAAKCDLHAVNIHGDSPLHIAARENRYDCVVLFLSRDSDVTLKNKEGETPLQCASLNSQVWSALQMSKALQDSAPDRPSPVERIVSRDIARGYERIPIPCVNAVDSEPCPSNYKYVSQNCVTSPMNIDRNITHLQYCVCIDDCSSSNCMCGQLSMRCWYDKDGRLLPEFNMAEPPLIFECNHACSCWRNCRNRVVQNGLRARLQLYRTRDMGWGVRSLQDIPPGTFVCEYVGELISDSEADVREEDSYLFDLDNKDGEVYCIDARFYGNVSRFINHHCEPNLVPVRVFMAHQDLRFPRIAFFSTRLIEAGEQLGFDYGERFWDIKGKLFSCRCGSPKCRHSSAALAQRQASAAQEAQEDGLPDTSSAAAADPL
- experiment.summary: Triple SILAC pull-down after UNC0638 treatment of 293T cells, DMSO/UNC0638 ratio of protein captured by 3×MBT;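 note: mass spectrometry (Q-Exactive) SILAC quantitation, DMSO/UNC0638 ratio computed after subtracting 3×MBTD355N mutant pull-down background, only proteins with at least twofold 3×MBT over mutant signal considered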
- Format: cell-based
- Set-up: endogenous in cells; host or cells: HEK 293T
- experimental.conditions: average of UNC Light and UNC Heavy experiments

molecule: CNN3 (protein, UniProt Q15417 1-329, looked up) Calponin-3: MTHFNKGPSYGLSAEVKNKIASKYDHQAEEDLRNWIEEVTGMSIGPNFQLGLKDGIILCELINKLQPGSVKKVNESSLNWPQLENIGNFIKAIQAYGMKPHDIFEANDLFENGNMTQVQTTLVALAGLAKTKGFHTTIDIGVKYAEKQTRRFDEGKLKAGQSVIGLQMGTNKCASQAGMTAYGTRRHLYDPKMQTDKPFDQTTISLQMGTNKGASQAGMLAPGTRRDIYDQKLTLQPVDNSTISLQMGTNKVASQKGMSVYGLGRQVYDPKYCAAPTEPVIHNGSQGTGTNGSEISDSDYQAEYPDEYHGEYQDDYPRDYQYSDQGIDY
Relative to UNC0638 Average: 0.23 log base 2
--
molecule: RALY (protein, UniProt Q9UKM9 2-306, looked up) RNA-binding protein Raly: SLKLQASNVTNKNDPKSINSRVFIGNLNTALVKKSDVETIFSKYGRVAGCSVHKGYAFVQYSNERHARAAVLGENGRVLAGQTLDINMAGEPKPDRPKGLKRAASAIYSGYIFDYDYYRDDFYDRLFDYRGRLSPVPVPRAVPVKRPRVTVPLVRRVKTNVPVKLFARSTAVTTSSAKIKLKSSELQAIKTELTQIKSNIDALLSRLEQIAAEQKANPDGKKKGDGGGAGGGGGGGGSGGGGSGGGGGGGSSRPPAPQENTTSEAGLPQGEARTRDDGDEEGLLTHSEEELEHSQDTDADDGALQ
Relative to UNC0638 Average: 0.21 log base 2
--
molecule: GNB1L (protein, UniProt Q9BYB4 1-327, looked up) Guanine nucleotide-binding …: MTAPCPPPPPDPQFVLRGTQSPVHALHFCEGAQAQGRPLLFSGSQSGLVHIWSLQTRRAVTTLDGHGGQCVTWLQTLPQGRQLLSQGRDLKLCLWDLAEGRSAVVDSVCLESVGFCRSSILAGGQPRWTLAVPGRGSDEVQILEMPSKTSVCALKPKADAKLGMPMCLRLWQADCSSRPLLLAGYEDGSVVLWDVSEQKVCSRIACHEEPVMDLDFDSQKARGISGSAGKALAVWSLDWQQALQVRGTHELTNPGIAEVTIRPDRKILATAGWDHRIRVFHWRTMQPLAVLAFHSAAVQCVAFTADGLLAAGSKDQRISLWSLYPRA
Relative to UNC0638 Average: 0.19 log base 2
